experiment: growth inhibition, single agents and combos, ICB984, cell-based, cisplatin or BGB combos, synergistic combos for chromothripsis tumors (AID 1671451); conditions: ICB984 medulloblastoma cells, drug combinations, cisplatin combo, at 5 µM, stronger effect = higher value;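 further: cells exposed for 96 hours before readout; 0% = vehicle DMSO and 100% = killing by high DMSO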
Could you label it Fulfilled if measured inhibition is -30% or higher, and Not fulfilled otherwise?

[
  {
    "Compound": "C=C(C)C1CCC2(C(=O)O)CCC3(C)C(CCC4C5(C)CCC(O)C(C)(C)C5CCC43C)C12 (stereo unspecified)",
    "Label": "Fulfilled"
  },
  {
    "Compound": "Nc1ccccc1NC(=O)c1cnccn1",
    "Label": "Fulfilled"
  },
  {
    "Compound": "CC1OC(n2cc(F)c(=O)[nH]c2=O)C(O)C1O (stereo unspecified)",
    "Label": "Not fulfilled"
  },
  {
    "Compound": "C=C1C(=O)O[C@@H]2C=C(C)CCC=C(C)CC[C@@H]12",
    "Label": "Fulfilled"
  },
  {
    "Compound": "C[C@H](NC(=O)c1ccccc1N=Cc1c(O)ccc2ccccc12)c1ccccc1",
    "Label": "Fulfilled"
  },
  {
    "Compound": "NC(=O)c1cccc2cn(-c3ccc(C4CCCNC4)cc3)nc12 (stereo unspecified)",
    "Label": "Not fulfilled"
  },
  {
    "Compound": "O=c1[nH]c(=S)[nH]c2nc(-c3ccccc3)c(-c3ccccc3)nc12",
    "Label": "Not fulfilled"
  },
  {
    "Compound": "CN(C)C(=S)NN=C(c1ccccn1)c1ccccn1",
    "Label": "Fulfilled"
  },
  {
    "Compound": "O=C(O)c1cc2cccc([N+](=O)[O-])c2[nH]1",
    "Label": "Not fulfilled"
  },
  {
    "Compound": "CC1CNC(=O)NC1=O (stereo unspecified)",
    "Label": "Not fulfilled"
  }
]

====

assay: viability loss with induced miR-34 in A549 – imaging, A549 dox-inducible miR-34, nuclei and caspase counts, primary screen (AID 1347080); conditions: A549 miR-34 inducible, Hoechst nuclei count, 48 h; stronger effect = lower value; cell number ratio, induced over uninduced
// classify: if (fold change < 0.9) label 1 else label 0

[
  {
    "Compound": "OCCn1cc(-c2ccc3c(c2)CCC3=NO)c(-c2ccncc2)n1",
    "Label": "label 0"
  },
  {
    "Compound": "CCC(=O)O[C@@]1(C(=O)CCl)[C@@H](C)C[C@H]2[C@@H]3CCC4=CC(=O)C=C[C@]4(C)[C@]3(F)[C@H](O)C[C@@]21C",
    "Label": "label 1"
  },
  {
    "Compound": "O=C1NC(C(=O)O)CS1 (stereo not given)",
    "Label": "label 0"
  },
  {
    "Compound": "Cc1nsc(NC(=O)NCc2ccccc2-n2ccnc2C)n1",
    "Label": "label 1"
  },
  {
    "Compound": "C[N+]1(C)[C@@H]2CC(OC(=O)C(O)(c3cccs3)c3cccs3)C[C@H]1C1OC12 (stereo not given in full)",
    "Label": "label 0"
  },
  {
    "Compound": "Nc1ccn([C@@H]2O[C@H](CO)[C@@H](O)[C@@H]2O)c(=O)n1",
    "Label": "label 0"
  },
  {
    "Compound": "Cc1nnc(NC(=O)NCC(c2ccccc2)c2ccccc2)s1",
    "Label": "label 1"
  }
]
